Measured IC50, listed per entry.
- testedTarget: Type-1 angiotensin II receptor (Cavia porcellus, UniProt Q9WV26)
- Sequence (Q9WV26 whole entry): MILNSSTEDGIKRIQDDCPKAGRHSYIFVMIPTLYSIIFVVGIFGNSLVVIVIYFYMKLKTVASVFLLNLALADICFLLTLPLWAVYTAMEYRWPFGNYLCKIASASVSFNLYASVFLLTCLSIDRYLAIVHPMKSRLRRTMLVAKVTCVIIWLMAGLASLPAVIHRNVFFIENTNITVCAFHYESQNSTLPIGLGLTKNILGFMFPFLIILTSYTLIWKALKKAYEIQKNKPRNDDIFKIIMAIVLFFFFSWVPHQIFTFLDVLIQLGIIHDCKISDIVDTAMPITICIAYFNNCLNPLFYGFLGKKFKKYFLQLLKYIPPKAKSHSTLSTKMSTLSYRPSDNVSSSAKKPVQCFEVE
- protocolDescription: Compound was tested for in vitro inhibition of specific binding of [I-125]AII to Angiotensin II receptor, type 1 in guinea pig adrenal membrane preparation
- Assay type: cell membranes
measuredMetric: IC50 (nM)

>>> measvalue("CCc1cc(OCc2ccc(-c3c(C)cccc3-c3nn[nH]n3)cc2)c2c(n1)CCCC2")
29
>>> measvalue("CCc1cc(OCc2ccc(-c3ccc(C)cc3-c3nn[nH]n3)cc2)c2c(n1)CCCC2")
54
>>> measvalue("CCc1cc(OCc2ccc(-c3ccccc3-c3nn[nH]n3)cc2F)c2c(n1)CCCC2")
9
>>> measvalue("CCc1cc(OCc2ccc(-c3ccc(OC)cc3-c3nnn[nH]3)cc2)c2c(n1)CCCC2")
140
>>> measvalue("CCc1cc(OCc2ccc(-c3cc(OC)ccc3-c3nn[nH]n3)cc2)c2c(n1)CCCC2")
67
>>> measvalue("CCc1cc(OCc2ccc(-c3ccc(Cl)cc3-c3nnn[nH]3)cc2)c2c(n1)CCCC2")
93
>>> measvalue("CCc1cc(OCc2ccc(-c3ccccc3-c3nn[nH]n3)cc2)c2c(n1)CCCC2")
5

Where do the numbers come from? From ChEMBL document CHEMBL1128013.
